Source of measurements: patent US10561763B2

Assay: half-life of thermal oxygen release (thermolysis) of endoperoxides in CDCl3 at 25° C.
Type: physicochemical
Settings: CDCL3, 25° C.
This listing pairs compounds with measured ti/2 in hours as measured in the presence of CDCL3 at 25° C..
Supply the numeric figure in h, leaving out any unit text.

Compound: CC1=CC2(C)OOC1(C)c1ccccc12 (centres unmarked)
Value unit: h
Measured number: 70
--
Compound: Cc1cccc2c1C1(C)C=CC2OO1 (centres unmarked) [1,8-dimethylnaphthalene-1,4-endoperoxide]
Value unit: h
Measured number: 30

What value of ti/2 in hours as measured in the presence of CDCL3 at 25° C. has been recorded for this entry: Cc1cccc2c1C1(C)C=CC2(C)OO1 (centres unmarked)
290

Next up: CC12C=CC(C)(OO1)c1ccccc12 [1,4-dimethylnaphthalene-1,4-endoperoxide]
5
